# tested system: insulin receptor on primary rat adipocytes (rat) (UniProt P15127)
# Sequence (P15127 27-1383): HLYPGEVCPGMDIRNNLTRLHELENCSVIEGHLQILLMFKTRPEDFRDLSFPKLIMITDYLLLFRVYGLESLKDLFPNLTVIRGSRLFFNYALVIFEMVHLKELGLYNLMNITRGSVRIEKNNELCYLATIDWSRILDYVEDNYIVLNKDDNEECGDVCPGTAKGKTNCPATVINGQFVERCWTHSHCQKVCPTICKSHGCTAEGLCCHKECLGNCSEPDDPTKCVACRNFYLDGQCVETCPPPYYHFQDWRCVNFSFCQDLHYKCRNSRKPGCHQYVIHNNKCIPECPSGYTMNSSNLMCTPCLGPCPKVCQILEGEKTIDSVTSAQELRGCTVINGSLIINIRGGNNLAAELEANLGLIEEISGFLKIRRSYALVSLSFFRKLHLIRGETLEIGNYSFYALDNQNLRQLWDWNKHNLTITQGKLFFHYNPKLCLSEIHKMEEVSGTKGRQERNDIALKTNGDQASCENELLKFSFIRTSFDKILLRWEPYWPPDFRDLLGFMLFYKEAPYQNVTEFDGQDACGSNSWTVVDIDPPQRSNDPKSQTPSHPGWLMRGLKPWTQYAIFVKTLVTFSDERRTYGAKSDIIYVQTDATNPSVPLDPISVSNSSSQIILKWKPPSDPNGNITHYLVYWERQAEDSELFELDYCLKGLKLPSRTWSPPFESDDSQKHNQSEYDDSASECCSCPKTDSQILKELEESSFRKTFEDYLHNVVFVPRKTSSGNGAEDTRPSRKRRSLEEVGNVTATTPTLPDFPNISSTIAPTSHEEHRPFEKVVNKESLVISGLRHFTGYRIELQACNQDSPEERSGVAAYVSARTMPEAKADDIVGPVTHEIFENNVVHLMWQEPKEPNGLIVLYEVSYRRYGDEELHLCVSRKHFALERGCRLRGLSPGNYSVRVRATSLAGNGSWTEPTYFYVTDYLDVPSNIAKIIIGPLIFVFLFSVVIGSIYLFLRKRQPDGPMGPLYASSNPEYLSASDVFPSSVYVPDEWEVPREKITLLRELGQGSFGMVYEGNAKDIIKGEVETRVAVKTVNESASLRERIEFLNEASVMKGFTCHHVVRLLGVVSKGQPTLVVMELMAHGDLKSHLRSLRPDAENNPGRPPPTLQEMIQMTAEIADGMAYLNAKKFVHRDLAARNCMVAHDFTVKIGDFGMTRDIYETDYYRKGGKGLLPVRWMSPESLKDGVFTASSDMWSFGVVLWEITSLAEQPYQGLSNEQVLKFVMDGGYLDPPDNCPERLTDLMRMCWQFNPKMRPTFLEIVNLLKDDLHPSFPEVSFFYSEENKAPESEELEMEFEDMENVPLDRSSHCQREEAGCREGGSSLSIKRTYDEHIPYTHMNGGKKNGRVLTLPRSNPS
# protocol: cell-based or functional assay
property name: Lipogenesis 1% HSA (% rel to HI)

Qu. I am curious: what Lipogenesis 1% HSA (% rel to HI) value has been reported for A14E, A22K(N(eps)tetradecanedioyl-4xgGlu), B3Q, B28D, B29R, desB30 human insulin (ligand, not fully specified; Lys A22 acylated on N(eps) with tetradecanedioyl-4xgGlu, also called Ex. No. 8) chain 1: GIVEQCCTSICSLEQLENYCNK chain 2: FVQQHLCGSHLVEALYLVCGERGFFYTDR ?
Ans. 17.2 % rel to HI

Qu. What about A14E, A22K(N(eps)tetradecanedioyl-4xgGlu), B3Q, B27E, B28E, B29R, desB30 human insulin (ligand, not fully specified; Lys A22 acylated on N(eps) with tetradecanedioyl-4xgGlu, also called Ex. No. 9) chain 1: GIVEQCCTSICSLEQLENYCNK chain 2: FVQQHLCGSHLVEALYLVCGERGFFYEER ?
Ans. 30.1 % rel to HI

Qu. What about A14E, A22K(N(eps)tetradecanedioyl-gGlu-2xOEG), B3E, B27E, B28E, B29R, desB30 human insulin (ligand, not fully specified; Lys A22 acylated on N(eps) with tetradecanedioyl-gGlu-2xOEG, Two-chain acylated insulin analogue; also called Ex. No. 2) chain 1: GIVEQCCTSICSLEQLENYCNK chain 2: FVEQHLCGSHLVEALYLVCGERGFFYEER ?
Ans. 14.2 % rel to HI

Qu. What about A8R, A22K(N(eps)tetradecanedioyl-4xgGlu), B3E, B26E, B27P, B28R, desB29, desB30 human insulin (ligand, not fully specified; Lys A22 acylated on N(eps) with tetradecanedioyl-4xgGlu, also called Ex. No. 16) chain 1: GIVEQCCRSICSLYQLENYCNK chain 2: FVEQHLCGSHLVEALYLVCGERGFFEPR ?
Ans. 130 % rel to HI

Qu. What about A14E, A22K(N(eps)hexadecanedioyl-4xgGlu), B3E, B27E, B28E, B29R, desB30 human insulin (ligand, not fully specified; Lys A22 acylated on N(eps) with hexadecanedioyl-4xgGlu, Two-chain acylated insulin analogue; also called Ex. No. 27) chain 1: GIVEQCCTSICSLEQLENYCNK chain 2: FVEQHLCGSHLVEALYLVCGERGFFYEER ?
Ans. 3.7 % rel to HI

Qu. What about A8R, A22K(N(eps)tetradecanedioyl-4xgGlu), B3E, B27E, B28R, desB29, desB30 human insulin (ligand, not fully specified; Lys A22 acylated on N(eps) with tetradecanedioyl-4xgGlu, Two-chain acylated insulin analogue; also called Ex. No. 17) chain 1: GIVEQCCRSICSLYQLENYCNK chain 2: FVEQHLCGSHLVEALYLVCGERGFFYER ?
Ans. 70.7 % rel to HI

Data provenance: patent US20180305431A1
